# MEASUREMENT SETUP: in water, 293.15 K
MEASURE: solubility (mole fraction)
Just the number, please.

The recorded solubility (mole fraction) for O=C(NC(=O)c1c(F)cccc1F)Nc1cc(Cl)c(F)c(Cl)c1F is 8.88e-06

###

# MEASUREMENT SETUP: in water, 313.15 K
MEASURE: solubility (mole fraction)
Answer with a bare number; do not write a unit.

For reference, reported solubility (mole fraction) for O=C(NC(=O)c1c(F)cccc1F)Nc1cc(Cl)c(F)c(Cl)c1F stands at 1.26e-05

###

# MEASUREMENT SETUP: in methanol, 293.15 K
MEASURE: solubility (mole fraction)
Answer with a number only.

The measured solubility (mole fraction) associated with O=C(NC(=O)c1c(F)cccc1F)Nc1cc(Cl)c(F)c(Cl)c1F reads 0.0854

###

# MEASUREMENT SETUP: in methanol, 313.15 K
MEASURE: solubility (mole fraction)
I'd appreciate a reply containing only the number, no unit.

O=C(NC(=O)c1c(F)cccc1F)Nc1cc(Cl)c(F)c(Cl)c1F has a reported solubility (mole fraction) of 0.116

###

# MEASUREMENT SETUP: in water, 278.15 K
MEASURE: solubility (mole fraction)
Just the number, please, no unit after it.

Notebook: O=C(NC(=O)c1c(F)cccc1F)Nc1cc(Cl)c(F)c(Cl)c1F , solubility (mole fraction) read as 6.82e-06

###

# MEASUREMENT SETUP: in methanol, 298.15 K
MEASURE: solubility (mole fraction)
Answer field: number only, no words.

For this compound ( O=C(NC(=O)c1c(F)cccc1F)Nc1cc(Cl)c(F)c(Cl)c1F ), measured solubility (mole fraction) is 0.0925

###

# MEASUREMENT SETUP: in ethanol, 293.15 K
MEASURE: solubility (mole fraction)
Kindly provide the number alone.

Entry under test: O=C(NC(=O)c1c(F)cccc1F)Nc1cc(Cl)c(F)c(Cl)c1F . Its solubility (mole fraction) was 0.0582

###

# MEASUREMENT SETUP: in propylene glycol, 313.15 K
MEASURE: solubility (mole fraction)
Please reply with the value in numeric form only.

O=C(NC(=O)c1c(F)cccc1F)Nc1cc(Cl)c(F)c(Cl)c1F yielded solubility (mole fraction) of 0.0296

###

# MEASUREMENT SETUP: in methanol, 318.15 K
MEASURE: solubility (mole fraction)

Record O=C(NC(=O)c1c(F)cccc1F)Nc1cc(Cl)c(F)c(Cl)c1F . Reported solubility (mole fraction): 0.124

###

# MEASUREMENT SETUP: in DMF, 298.15 K
MEASURE: solubility (mole fraction)
Respond numerically, and do not add a unit to the figure.

Reported solubility (mole fraction) of O=C(NC(=O)c1c(F)cccc1F)Nc1cc(Cl)c(F)c(Cl)c1F : 0.228

###

# MEASUREMENT SETUP: in ethanol, 298.15 K
MEASURE: solubility (mole fraction)

solubility (mole fraction) recorded for this compound, O=C(NC(=O)c1c(F)cccc1F)Nc1cc(Cl)c(F)c(Cl)c1F , is 0.0614

###

# MEASUREMENT SETUP: in methanol, 303.15 K
MEASURE: solubility (mole fraction)
// return just the number, without any unit appended

Documented solubility (mole fraction) of O=C(NC(=O)c1c(F)cccc1F)Nc1cc(Cl)c(F)c(Cl)c1F : 0.1

###

# MEASUREMENT SETUP: in propylene glycol, 303.15 K
MEASURE: solubility (mole fraction)
Simply state the number, no unit and no words.

solubility (mole fraction) recorded for this compound, O=C(NC(=O)c1c(F)cccc1F)Nc1cc(Cl)c(F)c(Cl)c1F , is 0.0269

###

# MEASUREMENT SETUP: in propylene glycol, 293.15 K
MEASURE: solubility (mole fraction)
Please state the value as a number alone, without comment.

Record O=C(NC(=O)c1c(F)cccc1F)Nc1cc(Cl)c(F)c(Cl)c1F , field solubility (mole fraction): 0.0241

###

# MEASUREMENT SETUP: in propylene glycol, 278.15 K
MEASURE: solubility (mole fraction)
# answer = number (no unit)

The compound identified as O=C(NC(=O)c1c(F)cccc1F)Nc1cc(Cl)c(F)c(Cl)c1F registered its solubility (mole fraction) at 0.0199

###

# MEASUREMENT SETUP: in DMF, 313.15 K
MEASURE: solubility (mole fraction)
API note: the answer field is a bare number with no unit suffix.

The recorded solubility (mole fraction) for entry O=C(NC(=O)c1c(F)cccc1F)Nc1cc(Cl)c(F)c(Cl)c1F equals 0.275

###

# MEASUREMENT SETUP: in DMF, 278.15 K
MEASURE: solubility (mole fraction)
Reply briefly: the number, and no unit.

solubility (mole fraction) reported for this compound O=C(NC(=O)c1c(F)cccc1F)Nc1cc(Cl)c(F)c(Cl)c1F : 0.174

###

# MEASUREMENT SETUP: in ethanol, 308.15 K
MEASURE: solubility (mole fraction)
Just the number, please, no unit attached.

For this compound ( O=C(NC(=O)c1c(F)cccc1F)Nc1cc(Cl)c(F)c(Cl)c1F ), measured solubility (mole fraction) is 0.0676
